Recorded measurements of Accumulative excretion percentage, one per entry
Test: Fecal excretion study in rats after oral NS, SF or CNS (LC–MS/MS)
Format: in vivo
Details: rat feces, oral CNS 110 mg/kg, 48 h
Method: The animal room was set at constant temperature of 20 ± 2 °C with humidity of 50 ± 20% and 12/12 h light/dark cycle. Eighteen male rats were fasted for 12 h before starting the experiment. […] The urine volume was recorded and the dry feces were measured for each collection period. […] The accumulative excretion percentage was calculated for each analyte as follows. […]

{"columns": ["molecule", "unit", "Accumulative excretion percentage"],
 "data": [
  ["CC(C)=CCC[C@](C)(O[C@@H]1O[C@H](CO)[C@@H](O)[C@H](O)[C@H]1O)[C@H]1CC[C@]2(C)[C@@H]1[C@H](O)C[C@@H]1[C@@]3(C)CC[C@H](O)C(C)(C)[C@@H]3[C@@H](O[C@@H]3O[C@H](CO)[C@@H](O)[C@H](O)[C@H]3O[C@@H]3O[C@@H](C)[C@H](O)[C@@H](O)[C@H]3O)C[C@]12C [ginsenoside Re]", "%", 5.469],
  ["CC(C)=CCC[C@](C)(O[C@@H]1O[C@H](CO[C@@H]2O[C@H](CO)[C@@H](O)[C@H](O)[C@H]2O)[C@@H](O)[C@H](O)[C@H]1O)[C@H]1CC[C@]2(C)[C@@H]1[C@H](O)C[C@@H]1[C@@]3(C)CC[C@H](O[C@@H]4O[C@H](CO)[C@@H](O)[C@H](O)[C@H]4O[C@@H]4O[C@H](CO)[C@@H](O)[C@H](O)[C@H]4O)C(C)(C)[C@@H]3CC[C@]12C [ginsenoside Rb1]", "%", 1.723],
  ["CC(C)=CCC[C@](C)(O[C@@H]1O[C@H](CO)[C@@H](O)[C@H](O)[C@H]1O)[C@H]1CC[C@]2(C)[C@@H]1[C@H](O)C[C@@H]1[C@@]3(C)CC[C@H](O)C(C)(C)[C@@H]3[C@@H](O[C@@H]3O[C@H](CO)[C@@H](O)[C@H](O)[C@H]3O)C[C@]12C [ginsenoside Rg1]", "%", 3.265],
  ["CC(C)=CCC[C@](C)(O[C@@H]1O[C@H](CO)[C@@H](O)[C@H](O)[C@H]1O)[C@H]1CC[C@]2(C)[C@@H]1[C@H](O)C[C@@H]1[C@@]3(C)CC[C@H](O[C@@H]4O[C@H](CO)[C@@H](O)[C@H](O)[C@H]4O[C@@H]4O[C@H](CO)[C@@H](O)[C@H](O)[C@H]4O)C(C)(C)[C@@H]3CC[C@]12C [ginsenoside Rd]", "%", 4.011]
]}
